# System: phospho-ERK in melanoma derived WM-266-4 cells
# protocolText: Mechanistic cellular assay for Raf kinase activity (phospho-ERK, Bio-Plex)
# Format: cell-based
# measurementParameters: Homo sapiens, treated 1-2 hr at 37° C., serum free medium, read-out: pERK EC50
pEC50: −log10 of the molar value.
quantityMeasured: pEC50

Solved cases (5 shown):
INSERT INTO results (molecule, targetundertest, quantitymeasured, measuredvalue) VALUES
  ('CC(NC(=O)c1cnn2ccccc12)c1cnc(Nc2ccc(C(F)(F)F)cc2)s1 (stereo not drawn)', 'phospho-ERK in melanoma derived WM-266-4 cells', 'pEC50', '6.00 to 7.00'),
  ('C[C@@H](NC(=O)c1cc2c(cn1)ncn2C1CCC1)c1cnc(Nc2ccc(C(F)(F)F)cc2)cn1 (single isomer, unassigned)', 'phospho-ERK in melanoma derived WM-266-4 cells', 'pEC50', '≥ 7.00'),
  ('CC(NC(=O)c1cc2c(cn1)ncn2C1CCN(C)CC1)c1cnc(Nc2ccc(C(F)(F)F)cc2)s1 (stereo not drawn)', 'phospho-ERK in melanoma derived WM-266-4 cells', 'pEC50', '6.00 to 7.00'),
  ('CC(NC(=O)c1cnn2cc(-c3cnc(N)nc3)ccc12)c1ncc(C(=O)Nc2cc(C(F)(F)F)c(Cl)cn2)s1 (stereo not drawn)', 'phospho-ERK in melanoma derived WM-266-4 cells', 'pEC50', '≥ 7.00'),
  ('C[C@@H](NC(=O)c1ccc2ncccc2c1)c1cc(C(=O)Nc2cnc(C(C)(C)C)nc2N)no1', 'phospho-ERK in melanoma derived WM-266-4 cells', 'pEC50', '5.00 to 6.00');

Enquiry: Consider the molecule shown here: `C[C@@H](NC(=O)c1cnn(-c2ccccn2)c1)c1ncc(C(=O)Nc2cc(C(F)(F)F)c(Cl)cn2)s1` What is its recorded pEC50?
Return: 5.00 to 6.00

Enquiry: Repeat for the following molecule: CC(NC(=O)c1cnn2ccccc12)c1ncc(C(=O)Nc2ccc(Cl)c(C(F)(F)F)c2)s1 (stereo not drawn)
Return: ≥ 7.00

Enquiry: Repeat for the following molecule: `C[C@@H](NC(=O)c1cnn(C)c1CNCCF)c1ncc(C(=O)Nc2cc(C(F)(F)F)c(Cl)cn2)s1`
Return: 6.00 to 7.00

Enquiry: Repeat for the following molecule: `C[C@@H](NC(=O)c1ccc2c(c1)NC(=O)CO2)c1ncc(C(=O)Nc2cc(C(F)(F)F)c(Cl)cn2)s1`
Return: ≥ 7.00

Enquiry: Repeat for the following molecule: CC(NC(=O)c1cc2c(cn1)ncn2C)c1cnc(Nc2cc(C(C)(C)C(F)(F)F)ccc2F)s1 (stereo not drawn)
Return: ≥ 7.00

Enquiry: Repeat for the following molecule: `C[C@@H](NC(=O)c1cn2c(Br)cnc2cn1)c1cnc(Nc2ccc(C(F)(F)F)cc2)s1`
Return: ≥ 7.00

Enquiry: Repeat for the following molecule: CCNc1cnc2cnc(C(=O)NC(C)c3ncc(Nc4ccc(C(F)(F)F)cc4)s3)cn12 (stereo not drawn)
Return: 6.00 to 7.00

Enquiry: Repeat for the following molecule: `O=C(NCc1cnc(Nc2ccc(C(F)(F)F)cc2)s1)c1ccc2ncccc2c1`
Return: 5.00 to 6.00

Enquiry: Repeat for the following molecule: CC(NC(=O)c1cnn2cc(-c3cccnc3F)ccc12)c1nc(C(=O)Nc2cc(C(F)(F)F)c(Cl)cn2)cs1 (stereo not drawn)
Return: 6.00 to 7.00

Enquiry: Repeat for the following molecule: `C[C@@H](NC(=O)c1cnn2ccccc12)c1cc(C(=O)Nc2ccc(Br)c(C(F)(F)F)c2)on1`
Return: ≥ 7.00

* * *

# targetUnderTest: V599E Raf (Homo sapiens, UniProt P15056, V600E)
# Sequence (P15056 whole entry V600E): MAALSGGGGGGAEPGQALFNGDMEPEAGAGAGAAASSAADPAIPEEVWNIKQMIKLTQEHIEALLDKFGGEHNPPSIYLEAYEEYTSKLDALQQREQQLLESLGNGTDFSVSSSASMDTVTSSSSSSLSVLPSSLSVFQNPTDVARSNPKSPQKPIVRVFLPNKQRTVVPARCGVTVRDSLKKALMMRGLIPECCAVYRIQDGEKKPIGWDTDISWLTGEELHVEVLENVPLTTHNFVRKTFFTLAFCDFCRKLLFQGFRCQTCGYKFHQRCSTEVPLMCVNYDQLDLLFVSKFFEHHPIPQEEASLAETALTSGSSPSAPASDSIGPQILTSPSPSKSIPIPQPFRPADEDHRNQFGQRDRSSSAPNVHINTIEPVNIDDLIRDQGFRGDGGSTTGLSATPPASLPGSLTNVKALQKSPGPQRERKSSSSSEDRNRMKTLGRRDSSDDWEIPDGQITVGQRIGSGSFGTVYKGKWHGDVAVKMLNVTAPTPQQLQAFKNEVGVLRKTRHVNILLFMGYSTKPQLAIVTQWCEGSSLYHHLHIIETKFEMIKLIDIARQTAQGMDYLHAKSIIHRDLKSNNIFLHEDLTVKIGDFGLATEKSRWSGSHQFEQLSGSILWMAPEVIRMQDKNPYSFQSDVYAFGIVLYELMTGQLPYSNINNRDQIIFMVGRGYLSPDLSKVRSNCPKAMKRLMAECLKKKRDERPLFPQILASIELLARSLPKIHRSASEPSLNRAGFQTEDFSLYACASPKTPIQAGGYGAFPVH
# protocolText: Biochemical FRET assay, mutant Raf (phosphorylation of MEK)
# measurementParameters: 0.125 nM V599E Raf, 100 nM biotin-MEK, 25 μM ATP, read-out: Raf (mut) inhibition
pIC50: −log10 of the molar value.
Listing of recorded pIC50 by entry.

INSERT INTO results (compound, measuredvalue) VALUES
  ('CC(NC(=O)c1cnn2cccnc12)c1cnc(Nc2ccc(C(F)(F)F)cc2)s1 (stereo not shown)', '≥ 7.00'),
  ('C[C@@H](NC(=O)c1ccc2c(c1)OCCN2C)c1ncc(C(=O)Nc2cc(C(F)(F)F)c(Cl)cn2)s1', '≥ 7.00'),
  ('C[C@@H](NC(=O)c1nc(NC(=O)OC(C)(C)C)cn1C)c1ncc(C(=O)Nc2cc(C(F)(F)F)c(Cl)cn2)s1', '6.00 to 7.00'),
  ('C[C@@H]1[C@]2(C)CC[C@@]1(C)[C@@H](NC(=O)c1cc([C@@H](C)NC(=O)c3cnn4ccccc34)no1)C2', '5.00 to 6.00'),
  ('O=C(Nc1ccc(Cl)c(C(F)(F)F)c1)c1ccc(CNC(=O)c2cnn3ccccc23)cc1', '6.00 to 7.00'),
  ('C[C@@H](NC(=O)c1cc2c(cn1)ncn2C1CN(CCO)C1)c1cnc(Nc2ccc(C(F)(F)F)cc2)s1', '≥ 7.00');

Enquiry: Consider the compound shown here: `C[C@@H](NC(=O)c1cnc2n1CCN(C)C2)c1ncc(C(=O)Nc2cc(C(F)(F)F)c(Cl)cn2)s1` What is its recorded pIC50?
Return: 6.00 to 7.00

* * *

Listing of recorded EC50 by entry.
# System: phospho-ERK in melanoma derived WM-266-4 cells
# protocolText: Mechanistic cellular assay for Raf kinase activity (phospho-ERK, Bio-Plex)
# Format: cell-based
# measurementParameters: Homo sapiens, treated 1-2 hr at 37° C., serum free medium, read-out: pERK EC50

Solved cases (4 shown):
INSERT INTO measurements (molecule, quantitymeasured, measuredvalue) VALUES
  ('C[C@@H](NC(=O)c1cnc2n1CCCN2C)c1ncc(C(=O)Nc2cc(C(F)(F)F)c(Cl)cn2)s1', 'EC50', '100 to 1000 nM'),
  ('CC(NC(=O)c1cc2c(cn1)ncn2C)c1cnc(Nc2cnc(C(C)(C)C)nc2)cn1 (stereo not drawn)', 'EC50', '100 to 1000 nM'),
  ('CC(NC(=O)c1cc2c(cn1)ncn2C)c1cnc(Nc2cnc(C(F)(F)F)nc2)s1 (stereo not drawn)', 'EC50', '100 to 1000 nM'),
  ('CCn1cnc2cnc(C(=O)NC(C)c3cnc(Nc4ccc(C(F)(F)F)cn4)cn3)cc21 (stereo not drawn)', 'EC50', '100 to 1000 nM');

Enquiry: Consider the molecule shown here: `C[C@@H](NC(=O)c1cnn2ccccc12)c1cc(C(=O)Nc2cccc(OC(F)(F)F)c2)on1` What is its recorded EC50?
Return: 100 to 1000 nM

Enquiry: Repeat for the following molecule: CCN1CCn2c(C(=O)NC(C)c3cnc(Nc4ccc(C(F)(F)F)cc4)s3)cnc2C1 (stereo not drawn)
Return: 1000 to 10000 nM

Enquiry: Repeat for the following molecule: CC(NC(=O)c1cc2c(cn1)ncn2C)c1cnc(Nc2cc(C(F)(F)F)c(Cl)cn2)cn1 (stereo not drawn)
Return: 1000 to 10000 nM

Enquiry: Repeat for the following molecule: CCc1nc2cnc(C(=O)NC(C)c3ncc(Nc4ccc(C(F)(F)F)cc4)s3)cn2c1N (stereo not drawn)
Return: 1000 to 10000 nM

Enquiry: Repeat for the following molecule: CC(NC(=O)c1cc2c(cn1)ncn2C1CCC1)c1cnc(Nc2cnc(C(C)(C)C)nc2)s1 (stereo not drawn)
Return: ≤ 100 nM

Enquiry: Repeat for the following molecule: CC(NC(=O)c1cc2cnn(C)c2cn1)c1cnc(Nc2ccc(C(F)(F)F)cc2)s1 (stereo not drawn)
Return: 1000 to 10000 nM

Enquiry: Repeat for the following molecule: CC(NC(=O)c1cnn2cc(-c3ccc(N4CCOCC4)nc3)ccc12)c1ncc(C(=O)Nc2cc(C(F)(F)F)c(Cl)cn2)s1 (stereo not drawn)
Return: ≤ 100 nM

Enquiry: Repeat for the following molecule: `C[C@@H](NC(=O)c1cncn1-c1ccccc1)c1ncc(C(=O)Nc2cc(C(F)(F)F)c(Cl)cn2)s1`
Return: 100 to 1000 nM

Enquiry: Repeat for the following molecule: CNC(=O)Cn1cnc2cnc(C(=O)NC(C)c3cnc(Nc4ccc(C(F)(F)F)cc4)s3)cc21 (stereo not drawn)
Return: 100 to 1000 nM

Enquiry: Repeat for the following molecule: COCCn1c(C(=O)NC(C)c2cnc(Nc3ccc(C(F)(F)F)cc3)s2)cnc1C (stereo not drawn)
Return: 1000 to 10000 nM

Enquiry: Repeat for the following molecule: C[C@H](NC(=O)c1cc2c(cn1)ncn2C)c1cnc(Nc2ccc(C(F)(F)F)cc2)cn1 (single isomer, unassigned)
Return: 1000 to 10000 nM

* * *

# Test system: phospho-ERK in melanoma derived WM-266-4 cells
# protocolText: Mechanistic cellular assay for Raf kinase activity (phospho-ERK, Bio-Plex)
# Format: cell-based
# measurementParameters: Homo sapiens, treated 1-2 hr at 37° C., serum free medium, read-out: pERK EC50
pEC50: −log10 of the molar value.
quantityMeasured: pEC50

Solved cases (4 shown):
INSERT INTO results (compound, measuredvalue) VALUES
  ('CC(NC(=O)c1cc2c(cn1)ncn2C)c1cnc(Nc2ccc(Cl)cc2)cn1 (stereo not drawn) [Example 255]', '6.00 to 7.00'),
  ('CCc1ncc(C(=O)N[C@H](C)c2ncc(C(=O)Nc3cc(C(F)(F)F)c(Cl)cn3)s2)n1CC [Example 163]', '6.00 to 7.00'),
  ('CCc1nc(C(C)(C)C)ncc1Nc1ncc(C(C)NC(=O)c2cc3c(cn2)ncn3C)s1 (stereo not drawn) [Example 295]', '≥ 7.00'),
  ('CC(NC(=O)c1cc2c(cn1)ncn2C)c1cnc(Nc2ccc(Cl)c(C(F)(F)F)c2)s1 (stereo not drawn) [Example 258]', '6.00 to 7.00');

Enquiry: Consider the compound shown here: C[C@@H](NC(=O)c1cnn2cccnc12)c1ncc(C(=O)Nc2cc(C(F)(F)F)c(Cl)cn2)s1 [Example 226] What is its recorded pEC50?
Return: 6.00 to 7.00

Enquiry: Repeat for the following compound: CC(NC(=O)c1cc2c(cn1)ncn2CCS(C)(=O)=O)c1cnc(Nc2ccc(C(F)(F)F)cc2)s1 (stereo not drawn) [Example 184]
Return: 6.00 to 7.00

Enquiry: Repeat for the following compound: C[C@@H](NC(=O)c1cnn2ccccc12)c1cc(C(=O)Nc2ccc(Cl)c(C(F)(F)F)c2)on1 [Example 220]
Return: 6.00 to 7.00

Enquiry: Repeat for the following compound: C[C@@H](NC(=O)c1cc2c(cn1)ncn2C1CN(S(C)(=O)=O)C1)c1cnc(Nc2ccc(C(F)(F)F)cc2)cn1 [Example 345]
Return: ≥ 7.00

Enquiry: Repeat for the following compound: CC(NC(=O)c1cn2c(Cl)cnc2cn1)c1cnc(Nc2ccc(C(F)(F)F)cc2)s1 (stereo not drawn) [Example 299]
Return: 6.00 to 7.00

Enquiry: Repeat for the following compound: CC(NC(=O)c1cnn2cc(-c3ccc(F)nc3)ccc12)c1ncc(C(=O)Nc2cc(C(F)(F)F)c(Cl)cn2)s1 (stereo not drawn) [Example 322]
Return: 6.00 to 7.00

Enquiry: Repeat for the following compound: C[C@H](NC(=O)c1cc2c(cn1)ncn2C)c1cnc(Nc2ccc(Cl)c(C(F)(F)F)c2)cn1 (single isomer, unassigned) [Example 237]
Return: 5.00 to 6.00
